Reported apparent KD of MS2 coat protein values for a set of sequences
# System: MS2 coat protein
# run-description: apparent KD of MS2 coat protein; designed switch direction (-1 OFF switch, 1 ON switch): -1; higher = weaker reporter binding
# measurement-parameters: Eterna round: R95; input ligand: microRNA oligo, concentration not stated
Give the value, in units of nM, as a plain number.

Look over these answered cases.
biopolymer-sequence: AGACAGUCAGGAUAUACAUGAGGAUCACCCAUGUUGAGAUGAGAAAGGGCAGGAAGAGGUAGAAGGGACGAGAG [JR_Exclu3_Sub036] (puzzle: Exclusion 3)
target-desc: MS2 coat protein
assay-value: 24.7
--
biopolymer-sequence: AAUAAACAUGAGGAUCACCCAUGUGAGGAUAUACAAAUAAAUAAAUAAAUAAAUAAUAGUAGAAGGCACAAUAA [Excls1-II] (puzzle: Exclusion 1)
target-desc: MS2 coat protein
assay-value: 35.3
--
biopolymer-sequence: AAAAAACAUGAGGAUCACCCAUGUCAGGAUAUCCGCGAAGGAAAGAAAAAAAAAAAAGGGAGAAGGGACAAAAA [April's Ex-date #4] (puzzle: Exclusion 1)
target-desc: MS2 coat protein
assay-value: 52.8

Problem: Fill blank: measured apparent KD of MS2 coat protein of the sequence AGUACUAACACGAGUGUGUUAGUACAAUAAGCUUGUGAAACAUGAGGAUCACCCAUGUCCUCAUAAGCUCGUCUUAU [salish99_TOv2_r3_073] (puzzle: Sensor v3, turn-off variant 2) is ____.
Solution: 516

Problem: Fill blank: measured apparent KD of MS2 coat protein of the sequence CCGCAAAAGCAGGAUAUCGUAUCGGAUACGAUACGAGAAGGGUUUACAUGAGGAUCACCCAUGUUCCUUAGCGG [Fiskers Ex 6 - 32] (puzzle: Exclusion 6) is ____.
Solution: 26.8

Problem: Fill blank: measured apparent KD of MS2 coat protein of the sequence CAGAAACAUGAGGAUCACCCAUGUGAGGAUAUGAAAAAGAAAAGAAAAGAAAGAAGAAUCAGAAGGCACAAAGA [salish99-ex1_r3_085] (puzzle: Exclusion 1) is ____.
Solution: 23.9

Problem: Fill blank: measured apparent KD of MS2 coat protein of the sequence UUUUUCGAACAAGCUACGUACAUGAGGAUCACCCAUGUCGGUAGAUUUGAGUAGGUUUGGAUGGAAGCUCGUCUUAU [JR_SV3TOV1_Sub085] (puzzle: Sensor v3, turn-off variant 1) is ____.
Solution: 28.2

----------
Reported apparent KD of MS2 coat protein values for a set of sequences
# Test system: MS2 coat protein
# run-description: apparent KD of MS2 coat protein; designed switch direction (-1 OFF switch, 1 ON switch): -1; higher = weaker reporter binding
# measurement-parameters: input ligand: none
Give the value, in units of nM, as a plain number.

Look over these answered cases.
biopolymer-sequence: AGUGUGUGGCAGGAUAUGCUGUUGAUUGGUGGAGCAGAAGGGUCUACAUGAGGAUCACCCAUGUAAGCGGUUGA [Ex6 #30] (Eterna round: R97, puzzle: Exclusion 6)
target-desc: MS2 coat protein
assay-value: 36.5
--
biopolymer-sequence: ACAUGUCAUCGAGGAUAUUGGACACAUGAGGAUCACCCAUGUACUCGGUUGCUCUAGCAUGAGUUCGAGAAGGCGAUGUACAUU [Ex NG2 #80] (Eterna round: R96, puzzle: Exclusion NG 2)
target-desc: MS2 coat protein
assay-value: 387

Next sequence, please.
Problem: Fill blank: measured apparent KD of MS2 coat protein of the sequence UGUUGUCGCGUAGGAUAUGAGGAUCACCCAUAUACAGGAUAUGAAAAGAAGGGUCUGAGGAUCACCCAGAAGGACGGGACAACU [pwkr exNG2 2xF5 2xFMN.28] (Eterna round: R96, puzzle: Exclusion NG 2) is ____.
Solution: 116
